Examples of compounds with documented TGI follow.
test system: MCF7 breast; assay: NCI tumour cell line growth inhibition, 48 h
Experimental Endpoint: TGI

C[C@@]12CCC[C@@](C)(C(=O)O)C1CC[C@@]13CC(=O)[C@@](CO)(CCC12)C3 (stereo not given in full) = > 100 µM
Clc1ccc(-c2cn(-c3ccccc3)c(-c3ccccc3)n2)c(Cl)c1 = > 12.3 µM
CCOC(=O)C12C(=O)CCN1CCc1ccccc1C2C (stereo not given) = > 100 µM
c1ccc2nn(C3CCCCO3)nc2c1 (stereo not given) = > 100 µM
C/C(=C/c1c(C)[nH]c(=O)[nH]c1=O)C(=O)O = > 1380 µM

----------
test system: SK-MEL-2 melanoma; assay: NCI tumour cell line growth inhibition, 48 h; in the data active means GI50 below about 0.43 µM; inactive means the rest
Outcome codes: active, inactive

Clc1ccc(-c2cn(-c3ccccc3)c(-c3ccccc3)n2)c(Cl)c1 = inactive
Cc1ccccc1NC(=O)c1sc2nc3c(cc2c1N)C(=O)CCC3 = inactive
COC1CCC(n2c([C@@H]3CCCC(=O)N3c3ccc(F)c(F)c3)nc3cc(-c4c(C)noc4C)ccc32)CC1 (stereo partly drawn) = inactive
COc1cccc2c(Nc3ccc(C(=O)NCCN(C)C)cc3)cc(-c3ccccc3)nc12 = inactive
COc1ccc(-c2c(C#N)c(N)nc3c2CCCc2ccc(F)cc2-3)cc1OC = active
C[C@@]12CCC[C@@](C)(C(=O)O)C1CC[C@@]13CC(=O)[C@@](CO)(CCC12)C3 (stereo partly drawn) = inactive
COC(=O)[C@]12CC[C@@H](C)[C@H](C)[C@@H]1C1=CC[C@@H]3[C@@]4(C)C=C(O)C(=O)C(C)=C4CC[C@@]3(C)[C@]1(C)CC2 = inactive
Cc1ccc(-n2c(-c3ccc(Cl)cc3)cs/c2=N\NC(=O)COc2n[nH]c(=O)c3ccccc23)cc1 = inactive

----------
system: HCT-15 colon; assay: NCI tumour cell line growth inhibition, 48 h; in the data active = GI50 below about 0.43 µM; inactive = the rest
Outcome codes: label 1 for active, label 0 for inactive

COc1cc(/C=C/C(=O)c2cc(OC)c(OC)c(OC)c2)cc(OC)c1OC = label 0
CC(C)(C)c1nnc2n(c1=O)N=CC(c1ccc(Br)cc1)S2 (stereo not drawn) = label 0
CN1c2ccccc2C(C)(C)C12CC(c1ccc(Cl)c(S(=O)(=O)N3CCCC3)c1)=NO2 (stereo not drawn) = label 1

----------
Examples of molecules with documented TGI follow.
tested on: OVCAR-5 ovarian; assay: NCI tumour cell line growth inhibition, 48 h
Experimental Endpoint: TGI

NC(CNc1ccc(O)cc1)C(=O)O (configuration not stated) = > 100 µM
O=[N+]([O-])c1ccc2c(c1)S(=O)c1ccccc1-2 (configuration not stated) = > 100 µM
C=CCNC(=S)OCCCCCCCCCC = 21.8 µM
CC(=O)OC1=C2C(CC3C4CC=C5CC(OC(C)=O)CCC5(C)C4CCC23C)C2C(=O)N(Cc3ccccc3)C(=O)C2C1 (configuration not stated) = > 100 µM
C/C(=C/c1c(C)[nH]c(=O)[nH]c1=O)C(=O)O = 1370 µM
O=[N+]([O-])c1cc(Cl)ccc1S(=O)(=O)c1cc(Cl)cc2c1NCCC2 = > 100 µM
CC(=O)C(C(=O)C(C)(C)C)C(=O)C(C)(C)C = > 100 µM

----------
system: SK-MEL-28 melanoma; test: NCI tumour cell line growth inhibition, 48 h
Experimental Endpoint: GI50

CCCCC#Cc1cccc(=O)o1 = 18.3 µM
C=C1CO[C@@H]2C[C@@H]1CCC1(C)OC1CC/C(C)=C/CC[C@@]2(C)O (stereo partly drawn) = > 89.6 µM
CCOC(=O)c1cnc2c(cnn2CC)c1NN=C(C)C = > 100 µM

All figures here come from PubChem BioAssay (NCI).
